compounds and their reported inhibition at 1 µM
# target_under_test: HPK1 (MAP4K1) (Homo sapiens, UniProt Q92918)
# Sequence (Q92918 whole entry): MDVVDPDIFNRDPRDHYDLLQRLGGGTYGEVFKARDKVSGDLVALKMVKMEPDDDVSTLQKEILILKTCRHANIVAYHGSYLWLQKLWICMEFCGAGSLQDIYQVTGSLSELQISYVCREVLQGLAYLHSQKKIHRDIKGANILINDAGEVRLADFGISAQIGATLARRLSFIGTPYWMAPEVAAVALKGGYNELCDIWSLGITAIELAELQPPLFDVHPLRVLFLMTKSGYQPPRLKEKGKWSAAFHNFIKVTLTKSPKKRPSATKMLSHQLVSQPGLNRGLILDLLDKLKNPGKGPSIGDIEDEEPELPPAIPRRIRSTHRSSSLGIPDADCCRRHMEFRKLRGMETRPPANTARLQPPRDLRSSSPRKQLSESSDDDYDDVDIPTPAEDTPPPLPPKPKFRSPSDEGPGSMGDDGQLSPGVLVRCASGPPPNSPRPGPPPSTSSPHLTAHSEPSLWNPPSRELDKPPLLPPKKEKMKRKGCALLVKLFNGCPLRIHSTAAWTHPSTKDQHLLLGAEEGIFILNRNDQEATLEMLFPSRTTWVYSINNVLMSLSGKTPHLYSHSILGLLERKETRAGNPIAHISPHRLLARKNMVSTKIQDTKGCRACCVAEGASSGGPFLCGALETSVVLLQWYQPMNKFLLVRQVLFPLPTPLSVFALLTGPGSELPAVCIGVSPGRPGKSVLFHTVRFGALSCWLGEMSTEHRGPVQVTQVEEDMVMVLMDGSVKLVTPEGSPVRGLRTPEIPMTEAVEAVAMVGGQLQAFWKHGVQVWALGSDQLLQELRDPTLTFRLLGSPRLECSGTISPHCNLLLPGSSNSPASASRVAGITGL
# assay_info: FRET Assay for HPK1 (MAP4K1): one step binding assay, displacement of labeled tracer
# condition_summary: 1 μM compound; FRET ratio 665/620, percent of control
// units = %; emit number, no label

I have this compound here, C/C(Nc1ccn(C2CCN(C3COC3)CC2)n1)=C1/C(=O)Nc2cnc(-c3cnccc3C)cc21 , and I need its recorded inhibition at 1 µM. 74.9

I have this compound here, C/C(Nc1cnn(C)c1)=C1/C(=O)Nc2cnc(-c3cncc(F)c3C)cc21 , and I need its recorded inhibition at 1 µM. 82.4

I have this compound here, C/C(Nc1cc(C)n(C[C@@H](C)O)n1)=C1/C(=O)Nc2cnc(-c3c(C)cccc3F)cc21 , and I need its recorded inhibition at 1 µM. 72.1

I have this compound here, C/C(Nc1cc(C)n(CC(C)C)n1)=C1/C(=O)Nc2cnc(-c3cnccc3C)cc21 , and I need its recorded inhibition at 1 µM. 70.9
